# OD450 per record follows
# assayed target: T1, human MSLN-R3-his protein (human, UniProt Q13421 487-598)
# T1 construct: Region 3 of human mesothelin, made in HEK293E cells, His-tagged; also called human MSLN-R3 protein; hMSLN-R3-his; not shown: His tag
# T1 sequence (Q13421 495-606): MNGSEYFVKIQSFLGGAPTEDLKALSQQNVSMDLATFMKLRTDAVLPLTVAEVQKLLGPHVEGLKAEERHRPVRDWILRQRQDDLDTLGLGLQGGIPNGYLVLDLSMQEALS
# assay comment: ELISA on coated MSLN-R3; antibody 0.0001 nM
quantity kind: OD450 (OD450)

• S009-F8-22.23 (antibody, human IgG1, kappa, V domains shown) VH: QVQLKQSGPGLVQPSQSLSITCTVSGFSLFSYGVHWVRQSPGKGLEWLGVIWSGGSTDYNAAFISRLSISKDNSKSQVFFKMNSLQADDTAMYYCARNGGSMITTLYYAMDYWGQGTSVTVSS VL: DVVMTQTPLSLPVSLGDQASISCRSSQSLVHSYGNTYLHWYLQKPGQSPKLLIYKVSNRFSGVPDRFSGSGSGTDFTLKISRVEAEDLGVYFCSQSTHIPFTFGGGTKLEIKR = 0.04
• S009-F8-13.8 (antibody, human IgG1, kappa, V domains shown) VH: EFQLQQSGPELVKPGASVKISCKASGYSFTDYNMNWVKQTNGKSLEWIGIINPNYGTSSYNQKFKGKATLTVDQSSSTAYMQLNSLTSEDSAVYYCARVGRDNSGFDYWGQGTTLTVSS VL: QIVLTQSPAIMSASPGEKVTMTCSASSSVSYMYWYQQKPGSSPRLLIYDTSNLASGVPVRFSGSGSGTSYSLTISRMEAEDAATYYCQQWSSYPPTFGSGTELEIKR = 0.04
• S009-F8-27.1 (antibody, human IgG1, kappa, V domains shown) VH: EVQLVESGGGLVKPGGSLKLSCAASGFTFSSYAMSWVRQTPEKRLEWVATISDGGNYTYYPDNVKGRFTISRDNAKNNLYLQMSHLKSEDTAMYYCAGDRGYPYAMDSWGQGTSVTVSS VL: NIMMTQSPSSLAVSAGEKVTMSCKSSQSVLYSSNQKNYLAWYQQKPGQSPKLLIYWASTRESGVPDRFTGSGSGTDFTLTISNVHAEDLAVYYCHQYLSSLTFGAGTKLELKR = 0.04
